Data origin: patent US4272437A

# Test system: Staph. aureus A-9537 and 50% serum
# test_method_notes: MIC, tube dilution, Staph. aureus A9537 + 50% serum
# Assay type: cell-based, Staphylococcus aureus
# measurement_context: Staphylococcus aureus, overnight 37° C., read-out: Minimum Inhibitory Concentration (M.I.C.)
Class (required): determined from MIC; valid ranges are lower range: < 4 µg/mL; middle range: ≥ 4 µg/mL and < 20 µg/mL; upper range: ≥ 20 µg/mL

Some solved cases for reference:
{"compound": "CC1=C(C(=O)O)N2C(=O)[C@H](CNC=O)[C@H]2S1 (relative stereo)", "qualitative_label": "upper range"}
{"compound": "NCC(=O)OCC1=C(C(=O)O)N2C(=O)CC2S1 (stereo not drawn)", "qualitative_label": "upper range"}
{"compound": "O=C([O-])C1=C(CO)S[C@@H]2CC(=O)N12.[Na+]", "qualitative_label": "middle range"}

Q. Sort into band: NCCCCCC1=C(C(=O)O)N2C(=O)C[C@H]2S1
A. lower range

Q. Which category fits this record: N[C@H]1C[C@@H](C2=C(C(=O)O)N3C(=O)C[C@H]3S2)C1
A. lower range

Q. Categorize the following entry: CON=C(C)CC1=C(C(=O)O)N2C(=O)CC2S1 (stereo not drawn)
A. upper range

Q. Would you mind sorting CCC(N)CC1=C(C(=O)O)N2C(=O)CC2S1 (stereo not drawn) into the appropriate category?
A. middle range

Q. Class (by measured MIC) for CCC1C(=O)N2C(C(=O)[O-])=C(C)S[C@H]12.[Na+] (stereo partly drawn) [1 (cis)]
A. upper range

Q. Returns: class label. Input: O=C(O)C1=C(CCCCN2C(=O)c3ccccc3C2=O)SC2CC(=O)N12 (stereo not drawn)
A. upper range

Q. Just checking, what class would you give O=C(O)C1=C(CCC[N+](=O)[O-])SC2CC(=O)N12 (stereo not drawn) here?
A. middle range

Q. Bin? C[C@@H](O)[C@H]1C(=O)N2C(C(=O)O)=C([C@H]3C[C@H](N)C3)S[C@H]12 (relative stereo)
A. lower range
